target: MAO-B (Rattus norvegicus, UniProt P19643); test: biochemical; assay type: biochemical; conditions: read-out: PE IC50
Sequence (P19643 whole entry): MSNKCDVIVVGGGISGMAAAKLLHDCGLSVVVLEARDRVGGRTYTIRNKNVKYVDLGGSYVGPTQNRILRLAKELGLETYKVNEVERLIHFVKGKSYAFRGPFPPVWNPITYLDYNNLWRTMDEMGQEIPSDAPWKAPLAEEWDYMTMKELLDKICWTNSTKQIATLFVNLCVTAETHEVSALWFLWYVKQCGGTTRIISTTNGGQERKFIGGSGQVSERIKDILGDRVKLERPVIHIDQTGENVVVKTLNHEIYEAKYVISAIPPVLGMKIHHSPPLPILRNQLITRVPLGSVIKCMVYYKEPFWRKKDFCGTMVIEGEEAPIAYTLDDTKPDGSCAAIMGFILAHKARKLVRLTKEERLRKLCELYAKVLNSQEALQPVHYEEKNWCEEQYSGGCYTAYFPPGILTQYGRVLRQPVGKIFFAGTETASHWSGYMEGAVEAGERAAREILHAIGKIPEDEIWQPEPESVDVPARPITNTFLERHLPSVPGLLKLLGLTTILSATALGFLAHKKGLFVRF
This section presents molecules with their documented IC50 values.
Please answer using the number first and the unit second.

# annotated cases, reported IC50 shown
1) C#CCN(C)CCCCCCC.Cl [Example 1-HMP, hydrochloride]	2000 nM
2) C#CCN(C)C(C)CCCC.Cl (centres unmarked) [Example 2-HxMP, hydrochloride]	100 nM
3) C#CCN(C)CCCCC.O=C(O)C(=O)O [Example M-1-PP, oxalate]	400 nM
4) C#CCN(C)C(C)CCCCC.Cl (centres unmarked) [Example 2-HMP, hydrochloride]	200 nM
5) C#CCN(C)CCCC.Cl [Example 1-BuMP, hydrochloride]	1000 nM
6) C#CCN(C)C(C)CCCCCCCC.Cl (centres unmarked) [Example 2-DMP, hydrochloride]	200 nM
7) C#CCN(C)C(CC)CC.O=C(O)C(=O)O [Example M-3-PP, oxalate]	200 nM

Please find the next molecule below.
Q) Name the recorded IC50 for C#CCN(C)C(C)CCC.Cl.O=C(O)C(=O)O (centres unmarked) [Example M-2-PP, oxalate] .
A) 200 nM
